Source: patent US8236808B2

Give measured IC50 for each item. Keep answers brief.
Assay System: epithelial sodium channel (ENaC) (Homo sapiens, UniProt P37088+P51168+P51170)
Sequence (P37088 whole entry): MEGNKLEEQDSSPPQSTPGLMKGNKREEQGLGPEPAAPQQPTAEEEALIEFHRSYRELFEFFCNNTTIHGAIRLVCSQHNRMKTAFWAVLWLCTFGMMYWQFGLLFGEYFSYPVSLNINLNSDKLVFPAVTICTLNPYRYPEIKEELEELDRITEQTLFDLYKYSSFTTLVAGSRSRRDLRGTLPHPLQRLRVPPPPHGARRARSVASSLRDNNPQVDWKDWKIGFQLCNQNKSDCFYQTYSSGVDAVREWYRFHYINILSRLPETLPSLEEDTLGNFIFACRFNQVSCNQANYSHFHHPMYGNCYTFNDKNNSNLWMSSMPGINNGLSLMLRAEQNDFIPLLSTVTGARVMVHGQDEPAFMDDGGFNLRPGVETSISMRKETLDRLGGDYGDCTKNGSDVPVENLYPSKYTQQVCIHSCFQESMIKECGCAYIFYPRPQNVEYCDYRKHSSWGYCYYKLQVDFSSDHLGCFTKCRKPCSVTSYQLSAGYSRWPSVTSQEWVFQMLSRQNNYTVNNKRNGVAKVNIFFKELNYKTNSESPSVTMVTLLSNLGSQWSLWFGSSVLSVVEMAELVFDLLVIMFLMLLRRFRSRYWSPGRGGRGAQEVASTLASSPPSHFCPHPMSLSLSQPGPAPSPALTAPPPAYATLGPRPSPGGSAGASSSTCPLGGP
Sequence (P51168 whole entry): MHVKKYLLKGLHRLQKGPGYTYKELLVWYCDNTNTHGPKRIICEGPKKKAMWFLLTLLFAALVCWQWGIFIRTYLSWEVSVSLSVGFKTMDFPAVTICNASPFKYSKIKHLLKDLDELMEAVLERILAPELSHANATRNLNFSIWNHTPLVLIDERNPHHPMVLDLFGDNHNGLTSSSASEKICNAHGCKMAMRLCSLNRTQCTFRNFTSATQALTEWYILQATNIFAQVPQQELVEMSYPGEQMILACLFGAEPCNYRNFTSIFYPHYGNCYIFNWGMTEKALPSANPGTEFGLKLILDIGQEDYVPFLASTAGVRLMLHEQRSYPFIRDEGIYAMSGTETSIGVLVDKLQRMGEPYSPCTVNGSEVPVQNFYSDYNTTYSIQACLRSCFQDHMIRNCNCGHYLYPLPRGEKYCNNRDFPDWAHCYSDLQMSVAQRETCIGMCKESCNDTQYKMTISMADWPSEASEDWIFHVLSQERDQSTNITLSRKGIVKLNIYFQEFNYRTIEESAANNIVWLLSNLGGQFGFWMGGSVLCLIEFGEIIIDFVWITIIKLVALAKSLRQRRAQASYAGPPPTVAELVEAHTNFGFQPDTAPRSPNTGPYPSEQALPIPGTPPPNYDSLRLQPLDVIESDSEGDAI
Sequence (P51170 whole entry): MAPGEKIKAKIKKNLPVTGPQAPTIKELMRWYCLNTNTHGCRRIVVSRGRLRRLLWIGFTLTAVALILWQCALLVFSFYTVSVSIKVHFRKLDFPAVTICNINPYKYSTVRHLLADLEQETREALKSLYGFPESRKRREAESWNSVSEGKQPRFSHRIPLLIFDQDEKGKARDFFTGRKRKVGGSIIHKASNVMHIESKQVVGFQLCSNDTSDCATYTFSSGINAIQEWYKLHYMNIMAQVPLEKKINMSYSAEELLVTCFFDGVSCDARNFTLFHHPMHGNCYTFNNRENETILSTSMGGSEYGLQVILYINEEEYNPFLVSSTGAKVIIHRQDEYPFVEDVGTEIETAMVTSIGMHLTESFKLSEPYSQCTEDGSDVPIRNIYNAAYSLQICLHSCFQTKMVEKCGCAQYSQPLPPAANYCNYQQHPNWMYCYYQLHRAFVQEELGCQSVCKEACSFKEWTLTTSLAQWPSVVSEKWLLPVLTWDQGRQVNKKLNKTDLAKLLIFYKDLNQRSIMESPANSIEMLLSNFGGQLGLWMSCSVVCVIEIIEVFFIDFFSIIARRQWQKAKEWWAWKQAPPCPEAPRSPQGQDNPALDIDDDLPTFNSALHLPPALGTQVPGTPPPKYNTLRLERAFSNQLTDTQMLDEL
Test Summary: Short circuit current (ISC) measurements in human bronchial epithelial cells, inhibition of amiloride-sensitive ISC
Setup Conditions: inhibition of the amiloride-sensitive ISC; HBECs cultured at air-liquid interface, Ussing chamber, compound added to apical chamber
Structures can show the parent of a compound that is named as a salt.

Request: Provide measured IC50 value, entry: C[N+](C)(CCCNC(=O)Cc1ccc(Cl)cc1)CCNC(=O)c1nc(Cl)c(N)nc1N [Example 51]
Response: 420 nM

Request: Tell me IC50 reported for C[N+](C)(C)CCNC(=O)c1nc(Cl)c(N)nc1N [Example 130]
Response: 5810 nM

Request: Provide only the value of recorded IC50 for CCC[N+](CCCc1ccc(OC)cc1)(CCCc1ccc(OC)cc1)CCNC(=O)c1nc(Cl)c(N)nc1N [Example 21, trifluoroacetate]
Response: 5690 nM

Request: For the compound CCC[C@@H](CNC(=O)c1nc(Cl)c(N)nc1N)[N+](C)(C)C [Example 5, trifluoroacetate] , give its reported IC50.
Response: 20 nM

Request: Return the recorded IC50 value; entry: C[N+](C)(CCCNC(=O)Cc1ccccc1)CCNC(=O)c1nc(Cl)c(N)nc1N [Example 53]
Response: 600 nM

Request: Supply reported IC50 belonging to this compound: C[N+](C)(C)[C@@H](CCCCNC(=O)Cc1ccc(OCc2ccccc2)cc1)CNC(=O)c1nc(Cl)c(N)nc1N [Example 15]
Response: 52 nM

Request: Determine from records and report IC50 for C[N+](C)(C)C1(CNC(=O)c2nc(Cl)c(N)nc2N)CCCC1 [Example 9]
Response: 3460 nM

Request: // fetch IC50 given entry C[N+](C)(CCCCNC(=O)Cc1ccc(OCc2ccccc2)cc1)CCNC(=O)c1nc(Cl)c(N)nc1N [Example 63]
Response: 43 nM

Request: State its IC50: CCC[C@@H](CNC(=O)c1nc(Cl)c(N)nc1N)[N+](C)(C)CCCc1ccc(OC[C@@H](O)CO)cc1 [Example 124, trifluoroacetate]
Response: 25 nM

* * *

Assay System: epithelial sodium channel (ENaC) (Homo sapiens, UniProt P37088+P51168+P51170)
Test Summary: Short circuit current (ISC) measurements in human bronchial epithelial cells, inhibition of amiloride-sensitive ISC
Setup Conditions: inhibition of the amiloride-sensitive ISC; HBECs cultured at air-liquid interface, Ussing chamber, compound added to apical chamber
Where a name gives a salt, the structure may show the parent alone.
Observable: IC50 (nM)
A number alone suffices; assume nM.

Request: Please supply the value of reported IC50 for the item C[N+](C)(CCCCCNS(=O)(=O)c1ccc(Cl)cc1)CCNC(=O)c1nc(Cl)c(N)nc1N [Example 94]
Response: 250

Request: Find the measured IC50 of C[N+](C)(CCCCCNC(=O)Cc1ccc(OCc2ccccc2)cc1)CCNC(=O)c1nc(Cl)c(N)nc1N [Example 78] and report it.
Response: 62

Request: Kindly indicate its recorded IC50. Item: COc1ccc2c(c1)CCCC2CC(=O)NCC[N+](C)(C)CCNC(=O)c1nc(Cl)c(N)nc1N (stereo not shown) [Example 35]
Response: 410

Request: Return IC50 for the following compound: COC(=O)COc1ccc(CCC[N+](C)(C)CCNC(=O)c2nc(Cl)c(N)nc2N)cc1 [Example 132, trifluoroacetate]
Response: 1490

Request: // fetch IC50 given entry C[N+](C)(CCCCNS(=O)(=O)c1ccc(Cl)cc1)CCNC(=O)c1nc(Cl)c(N)nc1N [Example 100]
Response: 290

Request: Provide measured IC50 value, entry: COc1ccc(CCC[N+](CCCc2ccc(OC)cc2)(CCCc2ccc(OC)cc2)CCNC(=O)c2nc(Cl)c(N)nc2N)cc1 [Example 18, trifluoroacetate]
Response: 37

Request: Provide one value: measured IC50 of C[N+]1(CCNC(=O)c2nc(Cl)c(N)nc2N)CCC(Cc2ccccc2)CC1 (stereo not shown) [Example 16]
Response: 640
